# assayRemarks: Toxicity liver stage against HepG2, at 10uM
# Type: cell-based
# Parameters: test concentration 10 uM, cell line HepG2-A16-CD81EGFP
# statedConditions: human, HepG2-A16-CD81EGFP cells; read-out: INHIBITION
cytotoxicity at 10 µM reference
testReadout: cytotoxicity at 10 µM (%)

{"compound": "c1ccc(CO[C@H]2CO[C@@]3(CCCN(Cc4ccncc4)C3)C2)nc1", "valueObserved": 1.44}
{"compound": "CCN1Cc2ccccc2CC2(CCN(C)CC2)C1=O", "valueObserved": 14.3}
{"compound": "CC1CCN(C(=O)Cc2ccc(S(=O)(=O)C(F)F)cc2)CC1", "valueObserved": 2.98}
{"compound": "CN(C)C(=O)c1ccc(C2CCCN2C(=O)c2ccccc2N(C)C)s1 (stereo not drawn)", "valueObserved": 18.5}
{"compound": "O=C(c1ccc(NCc2cccc(F)c2)cc1)N1CCC(CO)CC1", "valueObserved": 6.21}
{"compound": "N#Cc1cccc(N2CCC(CO)(CCc3ccccc3)CC2)n1", "valueObserved": -48}
{"compound": "CNC(=O)CN1CCO[C@H]2CN(CC3CC3)C[C@H]21", "valueObserved": 6.25}
{"compound": "Cc1cc2c(=O)n(CC(=O)N3CCn4cccc4C3C(C)C)cnc2s1 (stereo not drawn)", "valueObserved": 3.77}
{"compound": "COCCN1CCC(NCc2cc(F)ccc2F)C1 (stereo not drawn)", "valueObserved": -21.9}
{"compound": "Cc1ccc(NC(=O)c2ccc(=O)n(CC(=O)Nc3nccs3)n2)cc1", "valueObserved": 0.592}
{"compound": "O=C1OCCCN1Cc1nc(-c2ccc(N3CCCCC3)cc2)no1", "valueObserved": 7.04}
{"compound": "Cc1ccc(CNCC2CCc3nnc(C(C)C)n3C2)s1 (stereo not drawn)", "valueObserved": -4.43}
{"compound": "Cc1ccc(CN2CCCC2(C(N)=O)c2cnccn2)c(C)c1 (stereo not drawn)", "valueObserved": 4.11}
{"compound": "CNC(=O)Cc1noc(Cc2cccc(Cl)c2)n1", "valueObserved": 0.335}
{"compound": "CC[C@H]1CN(S(=O)(=O)c2ccccc2)CC[C@H]1CC(=O)O", "valueObserved": 1.7}
{"compound": "Cc1c(CN2CCCC2c2cncc(CN3CCCC3)n2)cnn1C (stereo not drawn)", "valueObserved": -1.15}
{"compound": "Cc1cc(CN2CCN(CC(O)c3ccc(Cl)cc3)CC2)no1 (stereo not drawn)", "valueObserved": -7.06}
{"compound": "Cn1ccc(C(=O)N2C[C@@H]3CCN(c4cnccn4)C[C@@H]3C2)n1", "valueObserved": -106}
{"compound": "Cc1cccc(OCC2CCCN(C(=O)Cn3ccccc3=O)C2)c1 (stereo not drawn)", "valueObserved": -0.503}
{"compound": "COCc1nc(CNc2cccc(-c3ncon3)c2)cs1", "valueObserved": 1.22}
{"compound": "CN(C)C(=O)c1cn[nH]c1C1(C)CCN(c2ncccn2)CC1", "valueObserved": 5.88}
{"compound": "N#Cc1ccccc1C(=O)N1C[C@@H]2CC[C@H]1CN(Cc1ccccc1)C2", "valueObserved": 1.43}
{"compound": "CN1CCN(CC2CC2)C(=O)c2cnc(N3CCC(CO)CC3)nc21", "valueObserved": -3.14}
{"compound": "CN(C)C(=O)[C@H]1C[C@@H]2CCN(C3CCOCC3)C[C@H]2O1", "valueObserved": -4.15}
{"compound": "COCCN1CCN(CC2(O)CCCCC2)CC1", "valueObserved": 7.04}
{"compound": "CSCC(=O)N(C)Cc1cnn(-c2ccc(F)cc2)c1", "valueObserved": -13.4}
{"compound": "N#Cc1cccnc1N1CCCN(C(=O)CCc2cccs2)CC1", "valueObserved": -15.8}
{"compound": "CC(C)(C)n1ncc2c1CCCC2NCc1ccc2c(c1)CCO2 (stereo not drawn)", "valueObserved": 2.55}
{"compound": "Cc1cc2n(n1)CCN(c1nc(N)nc3c1CCNCC3)C2", "valueObserved": 7.04}
{"compound": "Cc1cc(CNC(=O)N2CCc3ccccc3C2CO)c(C)o1 (stereo not drawn)", "valueObserved": 7.44}
{"compound": "CSC(C)C(=O)N(C)CC(=O)Nc1ccc(Br)cn1 (stereo not drawn)", "valueObserved": -7.18}
{"compound": "Cc1cccc(C(=O)NCc2ccc(OCCN(C)C)cc2)c1C", "valueObserved": 1.52}
{"compound": "CCN(Cc1ccc2cccc(O)c2n1)CC1CCCO1 (stereo not drawn)", "valueObserved": -4.02}
{"compound": "NC(=O)c1noc(Cn2ncc3ccccc3c2=O)n1", "valueObserved": -1.26}
{"compound": "O=C1COc2ccc(Br)cc2CN1CC1CC1", "valueObserved": -3.46}
{"compound": "CCn1cnnc1CNC(=O)N(C)Cc1ccc2c(c1)OCO2", "valueObserved": -5.83}
{"compound": "Cc1ccoc1C(=O)N1C[C@@H](OCC2CC2)[C@H]2OCCC[C@H]21", "valueObserved": 5.86}
{"compound": "Nc1nc2nc(C3CCCN(C(=O)c4cscn4)C3)ccc2s1 (stereo not drawn)", "valueObserved": -1.44}
{"compound": "CCc1noc(C)c1C(=O)NCCCC(CC)(CC)C1OCCO1", "valueObserved": -10.1}
{"compound": "Cc1cc(C2CCCN2C(=O)Cn2c(C)cc(=O)c3ccccc32)on1 (stereo not drawn)", "valueObserved": -9.02}
{"compound": "COCCNS(=O)(=O)c1ccc(CNc2ncccc2C#N)cc1", "valueObserved": 6.47}
{"compound": "Cc1cccc(CN2Cc3[nH]nc(COc4cccnc4)c3C2)n1", "valueObserved": 0.288}
{"compound": "COCC(=O)N1CCC(c2ccc(OC)cc2)C1 (stereo not drawn)", "valueObserved": 1.81}
{"compound": "c1cnn(Cc2nnc3n2CCCN(Cc2ccsc2)C3)c1", "valueObserved": -0.714}
{"compound": "COc1ccccc1NC(=O)NCCCC(=O)Nc1cn[nH]c1", "valueObserved": -9.55}
{"compound": "CC1CCN(CC(=O)N(C)CCc2noc(C3CC3)n2)C1=O (stereo not drawn)", "valueObserved": -133}
{"compound": "COc1nccnc1N1CCN(Cc2ccc3c(c2)OCO3)C(=O)C1", "valueObserved": -1.65}
{"compound": "Cc1ccc(C(=O)N2CCC(c3noc(-c4cccnc4)n3)CC2)cn1", "valueObserved": 2.6}

###

# assayRemarks: Toxicity liver stage against HepG2, at 10uM
# Type: cell-based
# Parameters: test concentration 10 uM, cell line HepG2-A16-CD81EGFP
# statedConditions: human, HepG2-A16-CD81EGFP cells; read-out: INHIBITION
cytotoxicity at 10 µM reference

{"compound": "CCc1nc2n(n1)CC(NCc1cnn(Cc3ccccc3)c1)CC2 (stereo not drawn)", "units": "%", "cytotoxicity at 10 µM": -10.4}
{"compound": "c1ccc(COC[C@@]23CCC[C@@H]2CN(Cc2ccccn2)C3)nc1", "units": "%", "cytotoxicity at 10 µM": 1.39}
{"compound": "CCc1noc(CN2CCN(C(=O)OC(C)(C)C)C(C)C2)n1 (stereo not drawn)", "units": "%", "cytotoxicity at 10 µM": 2.53}
{"compound": "COCC(=O)N1CC[C@H]2C[C@H](c3nc(C)no3)O[C@@H]2C1", "units": "%", "cytotoxicity at 10 µM": -76.1}
{"compound": "CC(=O)Nc1cc(Br)cnc1OCC(F)(F)F", "units": "%", "cytotoxicity at 10 µM": 5.69}
{"compound": "O=C1NCC(c2ccc(F)cc2)Cc2[nH]c(CCN3CCCC3)nc21 (stereo not drawn)", "units": "%", "cytotoxicity at 10 µM": -0.65}
{"compound": "CC(C)[C@H]1CN(CCS(C)(=O)=O)C[C@@H]1NC(=O)c1ccc(=O)[nH]c1", "units": "%", "cytotoxicity at 10 µM": 3.06}
{"compound": "CCC(C)C(=O)NCCc1nc(C(F)(F)F)cs1 (stereo not drawn)", "units": "%", "cytotoxicity at 10 µM": 2.08}
{"compound": "Cc1ccc(Cn2ccc(NS(C)(=O)=O)n2)cc1", "units": "%", "cytotoxicity at 10 µM": -12.2}
{"compound": "CC(C)Cc1noc(CN2CCN(C(=O)c3ccccc3F)CC2)n1", "units": "%", "cytotoxicity at 10 µM": -10.8}
{"compound": "CC(C)n1c(C2CCCN(Cc3ccnn3C)C2)nc2ccccc21 (stereo not drawn)", "units": "%", "cytotoxicity at 10 µM": -0.0273}
{"compound": "O=C(Nc1ccc(I)cc1C(=O)NCCN1CCOCC1)c1ccco1", "units": "%", "cytotoxicity at 10 µM": 0.512}
{"compound": "CCOC1CCN(C(=O)Nc2ccc(=O)n(C)c2)CC1", "units": "%", "cytotoxicity at 10 µM": -10.4}
{"compound": "COc1ccc(NC(C)C(=O)N2CCN(c3ccccc3)CC2)cn1 (stereo not drawn)", "units": "%", "cytotoxicity at 10 µM": 9.75}
{"compound": "O=C1[C@H]2CN(Cc3ccc(F)cc3)C[C@H]2CN1c1cncnc1", "units": "%", "cytotoxicity at 10 µM": -2.32}
{"compound": "CCCn1cc(S(=O)(=O)N[C@H]2CN(CC(N)=O)C[C@@H]2C2CC2)cn1", "units": "%", "cytotoxicity at 10 µM": -11.7}
{"compound": "CC(C)NC(=O)N1CC(=O)c2sc(Nc3ccc(C#N)cc3)nc2C1", "units": "%", "cytotoxicity at 10 µM": -7.77}
{"compound": "CCN1CC(C(=O)NCc2ccccc2-n2cccn2)CC1=O (stereo not drawn)", "units": "%", "cytotoxicity at 10 µM": 3.2}
{"compound": "O=C(NCCNc1ncccn1)C1CCN(c2ncccn2)CC1", "units": "%", "cytotoxicity at 10 µM": -7.67}
{"compound": "c1cnn(CCCO[C@@H]2CC[C@H]3[C@H]2OCCN3CC2CC2)c1", "units": "%", "cytotoxicity at 10 µM": 5.93}
{"compound": "Cc1ccc2c(c1)CCC2NCc1c(C)nn(CCO)c1C (stereo not drawn)", "units": "%", "cytotoxicity at 10 µM": 11.2}
{"compound": "Cc1c[nH]nc1C1CCCN(C(=O)c2c(C)noc2C)C1 (stereo not drawn)", "units": "%", "cytotoxicity at 10 µM": -3.53}
{"compound": "Cc1cnc(N2C[C@H]3CN(Cc4csc(C)n4)C(=O)[C@H]3C2)nc1", "units": "%", "cytotoxicity at 10 µM": 12}
